Hello, the source for this data is patent US10118935B2, in case you need it.

# Test system: SK-MEL-28
# Procedure Summary: NCI 60 cell line five dose, Melanoma
# Condition Description: read-out: LC50; molar
Quantity Measured: CC50 (nM)
Please give a number only; it is taken to be in nM.

Which CC50 value is on record for C=C1C(=O)O[C@H]2[C@H]1CC/C(COC(=O)NCCCCCCCCNC(=O)OC/C1=C/CC[C@@]3(C)O[C@H]3[C@H]3OC(=O)C(=C)[C@@H]3CC1)=C\CC[C@@]1(C)O[C@@H]21 [JVM 3-62] ?
2120

====

# Tested on: OVCAR-5
# Procedure Summary: NCI 60 cell line five dose, Ovarian Cancer
# Condition Description: read-out: LC50, molar
Quantity Measured: CC50 (µM)
Please give a number only; it is taken to be in µM.

Which CC50 value is on record for `C=C1C(=O)O[C@H]2[C@H]1CC/C(COC(=O)NCCCCCCCCNC(=O)OC/C1=C/CC[C@@]3(C)O[C@H]3[C@H]3OC(=O)C(=C)[C@@H]3CC1)=C\CC[C@@]1(C)O[C@@H]21` ?
4.04
